Target: T1, human PD-1 expressed on cells (human, UniProt Q15116 25-288)
T1 construct: whole, on cells
T1 sequence (Q15116 25-288): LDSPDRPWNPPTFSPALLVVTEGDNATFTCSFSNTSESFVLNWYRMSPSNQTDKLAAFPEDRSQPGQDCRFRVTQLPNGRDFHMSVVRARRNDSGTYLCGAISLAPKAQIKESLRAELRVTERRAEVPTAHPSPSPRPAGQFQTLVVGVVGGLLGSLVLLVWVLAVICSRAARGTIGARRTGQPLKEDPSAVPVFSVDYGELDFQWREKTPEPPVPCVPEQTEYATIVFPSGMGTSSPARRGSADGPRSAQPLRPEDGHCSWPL
Assay: flow cytometry, SEB-activated PBMC donor two
readoutName: MFI, 5 nM (MFI)
# output: bare number, implied unit MFI

Some entries whose results are on file:
binder	MFI, 5 nM [MFI]
38A6 (antibody, V domains shown, also called 780_46) VH: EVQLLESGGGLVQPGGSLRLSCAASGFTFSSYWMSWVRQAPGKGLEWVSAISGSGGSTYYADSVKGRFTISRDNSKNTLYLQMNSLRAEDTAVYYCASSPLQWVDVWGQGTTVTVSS VL: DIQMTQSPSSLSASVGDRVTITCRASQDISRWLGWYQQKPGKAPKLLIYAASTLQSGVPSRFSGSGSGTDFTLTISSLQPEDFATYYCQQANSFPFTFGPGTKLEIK	54.7
33C4 (antibody, V domains shown, also called 780_39) VH: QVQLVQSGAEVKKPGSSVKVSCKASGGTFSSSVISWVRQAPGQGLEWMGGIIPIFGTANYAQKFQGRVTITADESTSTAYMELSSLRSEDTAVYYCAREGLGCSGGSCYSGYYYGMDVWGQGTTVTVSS VL: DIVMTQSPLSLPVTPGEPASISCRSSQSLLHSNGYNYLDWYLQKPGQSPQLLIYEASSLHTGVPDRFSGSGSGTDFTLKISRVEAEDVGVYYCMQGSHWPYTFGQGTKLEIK	66.9
31B1 (antibody, V domains shown, also called 780_38; 33B1 and 31B2 (apparent misprints)) VH: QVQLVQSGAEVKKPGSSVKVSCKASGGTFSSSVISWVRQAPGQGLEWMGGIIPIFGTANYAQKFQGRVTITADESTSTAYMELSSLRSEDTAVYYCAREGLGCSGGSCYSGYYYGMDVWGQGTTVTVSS VL: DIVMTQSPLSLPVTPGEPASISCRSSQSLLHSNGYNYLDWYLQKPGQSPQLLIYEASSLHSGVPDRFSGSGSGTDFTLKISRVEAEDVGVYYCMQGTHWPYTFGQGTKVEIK	67.7

Next binder, MFI, 5 nM to be filled in.
What value of MFI, 5 nM has been recorded for this entry: 38B2 (antibody, V domains shown, 24H9 derivative, IgG; also called 780_54; hPD1 Ab (38B2)) VH: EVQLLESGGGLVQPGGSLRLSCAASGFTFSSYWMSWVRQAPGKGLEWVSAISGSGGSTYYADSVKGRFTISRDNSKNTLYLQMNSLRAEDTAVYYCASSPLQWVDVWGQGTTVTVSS VL: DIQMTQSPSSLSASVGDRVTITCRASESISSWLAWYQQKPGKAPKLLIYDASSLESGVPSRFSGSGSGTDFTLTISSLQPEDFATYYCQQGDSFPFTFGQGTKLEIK
55.3
